tested on: HT29 colon; test: NCI tumour cell line growth inhibition, 48 h

compound	target or system	TGI
CC(=O)OCC1OC(n2c3c(c(-c4ccc(C)cc4)c(C#N)c2=S)C(=O)CC(C)(C)C3)C(OC(C)=O)C(OC(C)=O)C1OC(C)=O (stereo not drawn)	HT29 colon	> 100 µM
CC[C@@H]1/C=C/C=C/C[C@H](C)[C@@H](O)[C@@H](C)C(=O)[C@H](C)[C@@H](O)[C@H](C)C(=O)[C@H](C)[C@@H](O)[C@H](C)/C=C/C(=O)O[C@H]2[C@@H](C)[C@@H](CC1)O[C@@]1(CC[C@@H](C)[C@@H](CC(C)O)O1)[C@@H]2C (stereo partly drawn)	HT29 colon	13.9 µM
Cc1cc(N(CCC#N)CCC#N)ccc1/C=C(\NC(=O)/C=C/c1ccccc1)C(=O)N=[N+]=[N-]	HT29 colon	> 100 µM
COc1ccc(C2COc3c(ccc(OC)c3OC)C2=O)cc1OC (stereo not drawn)	HT29 colon	> 100 µM
O=c1c2ccccc2nc(-c2cccc([N+](=O)[O-])c2)n1O	HT29 colon	> 100 µM
CCOc1ccc(/C=C2\N=C(c3ccccc3)OC2=O)cc1	HT29 colon	> 100 µM
N#CC(C(=O)CCCC(=O)Nc1ccccc1[N+](=O)[O-])c1c(Cl)cccc1Cl (stereo not drawn)	HT29 colon	> 100 µM
CCOc1ccc(N(C)c2ccc(/C=C/C3=[N+](C)c4ccccc4C3(C)C)cc2)cc1	HT29 colon	1.06 µM
Cc1cc(I)cc(CNCCN(C)C)c1O	HT29 colon	> 100 µM
C/C=C1/CC(C(=O)OC)N(C(=O)OCc2ccccc2)C1=S (stereo not drawn)	HT29 colon	> 100 µM
COCN1C(=O)[C@@H]2CCCN2C(=O)c2cc(OC)c(Cc3ccccc3)cc21	HT29 colon	> 100 µM
COc1ccc(-c2nc3sc(-c4cc(OC)c(OC)c(OC)c4)nn3c2/C=C2/C(=O)Nc3ccc(F)cc32)cc1	HT29 colon	4.68 µM
CC1(C)CNC(=O)C2(CCCO2)CNC(C)(C)CNC(=O)C2(CCCO2)CN1 (stereo not drawn)	HT29 colon	> 10 µM
